Molecular target: AR in VCaP cells (Homo sapiens)
Construct: endogenous in cells; host or cells: VCaP cells
Sequence (P10275 whole entry): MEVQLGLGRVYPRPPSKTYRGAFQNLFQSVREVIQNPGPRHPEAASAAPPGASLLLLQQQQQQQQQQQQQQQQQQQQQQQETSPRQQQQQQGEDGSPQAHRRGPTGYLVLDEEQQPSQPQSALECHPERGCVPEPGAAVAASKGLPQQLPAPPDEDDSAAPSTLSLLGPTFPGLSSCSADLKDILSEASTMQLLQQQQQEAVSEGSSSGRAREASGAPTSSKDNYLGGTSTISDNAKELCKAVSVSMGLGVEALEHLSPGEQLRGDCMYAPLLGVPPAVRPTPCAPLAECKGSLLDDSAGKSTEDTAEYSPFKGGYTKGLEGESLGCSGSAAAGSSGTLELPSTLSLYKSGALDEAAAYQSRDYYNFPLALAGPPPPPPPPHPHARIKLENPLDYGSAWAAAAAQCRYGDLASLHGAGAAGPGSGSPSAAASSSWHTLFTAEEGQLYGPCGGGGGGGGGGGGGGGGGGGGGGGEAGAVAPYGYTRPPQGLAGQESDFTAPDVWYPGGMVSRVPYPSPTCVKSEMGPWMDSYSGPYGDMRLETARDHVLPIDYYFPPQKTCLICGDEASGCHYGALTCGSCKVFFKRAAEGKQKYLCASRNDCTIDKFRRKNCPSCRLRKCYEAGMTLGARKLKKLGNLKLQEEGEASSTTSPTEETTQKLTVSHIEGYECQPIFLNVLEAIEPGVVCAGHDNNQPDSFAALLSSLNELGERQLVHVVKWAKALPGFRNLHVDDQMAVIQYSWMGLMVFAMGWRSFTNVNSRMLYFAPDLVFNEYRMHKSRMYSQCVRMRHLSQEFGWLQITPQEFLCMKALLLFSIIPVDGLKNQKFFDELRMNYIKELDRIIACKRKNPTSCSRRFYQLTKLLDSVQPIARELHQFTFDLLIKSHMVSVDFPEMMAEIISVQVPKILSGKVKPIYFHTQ
Test: VCAP AR Degradation Assay (AR ELISA, 24 h)
Format: cell-based
Details: lowest measured AR level normalized to DMSO control, top concentration 5 μM, read-out: Y
Protocol: VCAP AR Degradation Assay. Test compounds were pre-dispensed into a Corning CellBind 96-well clear bottom plate (Cat #3300) using an acoustic dispenser to make a 10-point concentration series at 1:3 dilution for each compound. The final top concentration of each compound was 5 μM. DMSO at a final concentration of 0.1% was used as a control. […] AR levels in compound-treated wells were normalized to that of DMSO control and expressed as percent of control (PoC) (y). […]
Structures can show the parent of a compound that is named as a salt.
Each entry below lists one item and its recorded remaining activity at up to 5 µM value.
observationType: remaining activity at up to 5 µM

* C[C@@H]1CN(CCO[C@H]2CC[C@H](N3C(=S)N(c4cnc(C#N)c(Cl)c4)C(=O)C3(C)C)CC2)C[C@H](C)N1CC(=O)Nc1ccc(C2CCC(=O)NC2=O)nc1 (stereo partly shown) [Cmpd 6, hydrochloride] | 20 to 30%
* CC1(C)C(=O)N(c2cnc(C#N)c(C(F)(F)F)c2)C(=S)N1[C@H]1CC[C@H](OCCC2CCN(CC(=O)Nc3ccc(C4CCC(=O)NC4=O)nc3)CC2(F)F)CC1 (stereo partly shown) | 0 to 20%
* C[C@@H]1CN(CCCO[C@H]2CC[C@H](N3C(=S)N(c4cnc(C#N)c(C(F)(F)F)c4)C(=O)C3(C)C)CC2)C[C@H](C)N1CC(=O)Nc1ccc(C2CCC(=O)NC2=O)nc1 (stereo partly shown) [Cmpd 4, hydrochloride] | 20 to 30%
* CC1(C)C(=O)N(c2ccc(C#N)c(C(F)(F)F)c2)C(=S)N1[C@H]1CC[C@H](CCCN2CCN(CC(=O)Nc3ccc(C4CCC(=O)NC4=O)nc3)[C@@H](C(F)(F)F)C2)CC1 (stereo partly shown) | 20 to 30%
* C[C@@H]1CN(CCCO[C@H]2CC[C@H](N3C(=S)N(c4ccc(C#N)c(C(F)(F)F)c4)C(=O)C3(C)C)CC2)C[C@H](C)N1CC(=O)Nc1ccc(N2CCC(=O)NC2=O)nc1 [Cmpd 12, hydrochloride] | 30 to 70%
* C[C@@H]1CN(CCC[C@H]2CC[C@H](N3C(=S)N(c4cnc(C#N)c(Cl)c4)C(=O)C3(C)C)CC2)C[C@H](C)N1CC(=O)Nc1ccc(C2CCC(=O)NC2=O)nc1 (stereo partly shown) [Cmpd 11, hydrochloride] | 20 to 30%
* CC1(C)C(=O)N(c2cnc(C#N)c(C(F)(F)F)c2)C(=S)N1[C@H]1CC[C@H](OCCN2CCN(CC(=O)Nc3ccc(C4CCC(=O)NC4=O)nc3)[C@@H](C(F)(F)F)C2)CC1 (stereo partly shown) | 20 to 30%
* C[C@@H]1C[C@H](OCC[C@H]2CC[C@H](N3C(=S)N(c4ccc(C#N)c(C(F)(F)F)c4)C(=O)C3(C)C)CC2)C[C@H](C)N1CC(=O)Nc1ccc(C2CCC(=O)NC2=O)nc1 (stereo partly shown) | 20 to 30%
* CC1(C)C(=O)N(c2ccc(C#N)c(C(F)(F)F)c2)C(=S)N1[C@H]1CC[C@H](OCCC2CCN(CC(=O)Nc3ccc(C4CCC(=O)NC4=O)nc3)CC2(F)F)CC1 (stereo partly shown) | 0 to 20%
* C[C@@H]1CN(CCO[C@H]2CC[C@H](N3C(=S)N(c4ccc(C#N)c(C(F)(F)F)c4)C(=O)C3(C)C)CC2)C[C@H](C)N1CC(=O)Nc1ccc(N2CCC(=O)NC2=O)nc1 | 30 to 70%
